The values you see were collected from patent US8604029B2.

Tested on: Aspergillus fumigatus
measurement.description: MIC measurement, YAG medium
Assay type: cell-based
study.conditions: Aspergillus fumigatus; YAG medium; MIC banded into grades; strain AF293; read-out: MIC A. fumigatus
property.label: MIC

Query :: Look up MIC for this compound: C=C1CCN(c2ccc(NC(=O)C(=O)c3c(-c4ccccc4)cc4ccccn34)cc2)CC1
Result :: < 1 µg/mL

Query :: What does the data say about its MIC? Entry: Cc1nccn1CCCOc1ccc(NC(=O)C(=O)c2c(-c3ccccc3)cc3ccccn23)cc1C(C)C
Result :: 1 to 10 µg/mL

====

Tested on: Aspergillus fumigatus
measurement.description: MIC measurement, YAG medium
Assay type: cell-based
study.conditions: Aspergillus fumigatus; YAG medium; MIC banded into grades; strain AF293; read-out: MIC A. fumigatus
property.label: MIC

Examples with answers:
Cc1cc(C)nc(N2CCN(c3ccc(NC(=O)C(=O)c4c(C5CCCC5)cc5ccccn45)cc3)CC2)c1 [Example 47] :: < 1 µg/mL
Cc1cc(C)nc(N2CCN(c3ccc(NC(=O)C(=O)c4c(-c5ccccc5)cc5ccccn45)cc3C)CC2)c1 [Example 82] :: < 1 µg/mL

Query :: I am curious: what MIC value has been reported for Cc1cc(N2CCN(c3ccc(NC(=O)C(=O)c4c(-c5ccccc5)cc5ccccn45)cc3)CC2)cc(C)n1 [Example 52] ?
Result :: > 10 µg/mL

====

Entries and their MIC
Tested on: Aspergillus fumigatus
measurement.description: MIC measurement, YAG medium
Assay type: cell-based
study.conditions: Aspergillus fumigatus; YAG medium; MIC banded into grades; strain AF293; read-out: MIC A. fumigatus

Please review the following examples before continuing.
CC(C)c1ncc(C(C)(C)c2cccc(NC(=O)C(=O)c3c(-c4ccccc4)cc4ccccn34)c2)n1C [Example 15] :: > 10 µg/mL
CN1CCN(c2ccc(NC(=O)C(=O)c3c(-c4ccccc4)cc4ccccn34)cc2-c2ncco2)CC1 [Example 19] :: > 10 µg/mL
Cc1cc(C)nc(N2CCC(O)(c3ccc(NC(=O)C(=O)c4c(-c5ccccc5)cc5ccccn45)cc3)CC2)c1 [Example 79] :: > 10 µg/mL
O=C(Nc1ccc(N2CCN(S(=O)(=O)c3cccnc3)CC2)cc1)C(=O)c1c(-c2ccccc2)cc2ccccn12 [Example 51] :: < 1 µg/mL
Cc1cc(C)nc(N2CCN(c3ccc(NC(=O)C(=O)c4c(C5CCN(C)CC5)cc5ccccn45)cc3)CC2)c1 [Example 63] :: > 10 µg/mL

Query :: For the compound Cc1cc(C)nc(NCCN(C)c2ccc(NC(=O)C(=O)c3c(-c4ccccc4)cc4ccccn34)cc2)c1 [Example 69] , what MIC is on record?
Result :: < 1 µg/mL

Query :: Please report the recorded MIC for Cc1cc(OCCOc2ccc(NC(=O)C(=O)c3c(-c4ccccc4)cc4ccccn34)cc2)cc(C)n1 [Example 71] .
Result :: < 1 µg/mL

Query :: I am curious: what MIC value has been reported for Cc1nc(C(C)C)cn1C(C)(C)c1cccc(NC(=O)C(=O)c2c(-c3ccccc3)cc3ccccn23)c1 [Example 25] ?
Result :: > 10 µg/mL

Query :: Consider the compound Cc1cc(N2CCN(c3ccc(NC(=O)C(=O)c4c(-c5ccccc5)cc5ccccn45)cc3)CC2)nc(C)n1 [Example 45] and give its measured MIC.
Result :: < 1 µg/mL

Query :: I am curious: what MIC value has been reported for Cc1ccnc(N2CCN(c3ccc(NC(=O)C(=O)c4c(-c5ccccc5)cc5ccccn45)cc3)CC2)c1 [Example 49] ?
Result :: < 1 µg/mL
